Where do these numbers come from? They come from patent US9056104B2.

- System: SKBr3 (estrogen receptor negative, Her2 over-expressing breast cancer cells)
- methodNotes: Anti-proliferative activity against SKBr3 cells
- Assay type: cell-based
- reportedConditions: Table 3; mean ± SD; read-out: Anti-Proliferation Activities of Saturated Linker Dimers, SKBr3
Measured pIC50, listed per entry.
API: returns pIC50 as number; meaning -log10 of concentration in mol/L.

Consider the compound Cc1c(OC2CCN(C)CC2)ccc2cc(NC(=O)CCCCC(=O)Nc3cc4ccc(OC5CCN(C)CC5)c(C)c4oc3=O)c(=O)oc12 and give its measured pIC50.
5.90

Next:
Consider the compound Cc1c(OC2CCN(C)CC2)ccc2cc(NC(=O)CCCCCCCCC(=O)Nc3cc4ccc(OC5CCN(C)CC5)c(C)c4oc3=O)c(=O)oc12 and give its measured pIC50.
5.55

Consider the compound Cc1c(OC2CCN(C)CC2)ccc2cc(NC(=O)CCCCCCC(=O)Nc3cc4ccc(OC5CCN(C)CC5)c(C)c4oc3=O)c(=O)oc12 and give its measured pIC50.
5.92
